# System: Autotaxin (Homo sapiens) (UniProt Q13822)
# Assay Explanation: Inhibition of human recombinant ATX at 1 uM after 16 hrs; values are per cent of control
Measured Quantity: residual activity (%)
Give bare numbers, in %.

// solved cases for residual activity follow
CCCCCCCCCCCCCCCC(=O)N[C@@H](Cc1ccc(OCc2ccccn2)cc1)C(=O)CP(=O)(O)O    102
CCCCCCCCCCCCCCCC(=O)N[C@@H](Cc1ccc(OCCCCC)cc1)C(=O)CP(=O)(O)O    95
CCCCCCCCCCCCCCCC(=O)N[C@H](Cc1ccc(OCCCCC)cc1)C(O)CP(=O)(O)O (single isomer, unassigned; diastereomer a)    81
CCCCCCCCCCCCCCCC(=O)N[C@H](Cc1ccc(OC)cc1)C(O)CP(=O)(O)O (single isomer, unassigned; diastereomer a)    100
CCCCCCCCCCCCCCCC(=O)N[C@@H](Cc1ccc(OCc2cc(OCC(F)(F)F)ccn2)cc1)C(O)CP(=O)(O)O (stereo in doubt; f3)    92
CCCCCCCCCCCCCCCC(=O)N[C@H](Cc1ccc(OCc2cc(OCC(F)(F)F)ccn2)cc1)C(=O)CP(=O)(O)O    85
CCCCCCCCCCCCCCCC(=O)N[C@H](Cc1ccc(OCCC)cc1)C(O)CP(=O)(O)O (single isomer, unassigned; diastereomer b)    108
CCCCCCCCCCCCCCCC(=O)N[C@@H](Cc1ccc(OCCC(C)C)cc1)C(=O)CP(=O)(O)O    104
CCCCCCCCCCCCCCCC(=O)N[C@H](Cc1ccc(OCCC)cc1)C(=O)CP(=O)(O)O    104
CCCCCCCCCCCCCCCC(=O)N[C@@H](Cc1ccc(OC)cc1)C(=O)CP(=O)(O)O    96

Quick batch: residual activity for everything below.
1. CCCCCCCCCCCCCCCC(=O)N[C@H](Cc1ccc(OC)cc1)C(O)CP(=O)(O)O (stereo in doubt; f20)
2. CCCCCCCCCCCCCCCC(=O)N[C@@H](Cc1ccc(OCCC(C)C)cc1)C(O)CP(=O)(O)O (stereo in doubt; f33)
3. CCCCCCCCCCCCCCCC(=O)N[C@H](Cc1ccc(OCc2ccccn2)cc1)C(O)CP(=O)(O)O (single isomer, unassigned; diastereomer b)

Response line:
1: 95; 2: 104; 3: 92

Quick batch: residual activity for everything below.
1. CCCCCCCCCCCCCCCC(=O)N[C@H](Cc1ccc(OCCC(C)C)cc1)C(=O)CP(=O)(O)O
2. CCCCCCCCCCCCCCCC(=O)N[C@H](Cc1ccc(OCCC)cc1)C(O)CP(=O)(O)O (stereo in doubt)
3. CCCCCCCCCCCCCCCC(=O)N[C@@H](Cc1ccc(OCc2cc(OCC(F)(F)F)ccn2)cc1)C(=O)CP(=O)(O)O
4. CCCCCCCCCCCCCCCC(=O)N[C@H](Cc1ccc(OCCC(C)C)cc1)C(O)CP(=O)(O)O (single isomer, unassigned; diastereomer a)
5. CCCCCCCCCCCCCCCC(=O)N[C@@H](Cc1ccc(OCC2CCCCC2)cc1)C(O)CP(=O)(O)O (single isomer, unassigned; diastereomer b)
6. CCCCCCCCCCCCCCCC(=O)N[C@H](Cc1ccc(OCc2ncc(C)c(OC)c2C)cc1)C(O)CP(=O)(O)O (single isomer, unassigned; diastereomer a)
7. CCCCCCCCCCCCCCCC(=O)N[C@H](Cc1ccc(OCc2ccccn2)cc1)C(=O)CP(=O)(O)O
8. CCCCCCCCCCCCCCCC(=O)N[C@H](Cc1ccc(OCc2cc(OCC(F)(F)F)ccn2)cc1)C(O)CP(=O)(O)O (single isomer, unassigned; diastereomer a)

Response line:
1. 97
2. 80
3. 79
4. 103
5. 80
6. 108
7. 78
8. 92

The value of residual activity measured for the compound "CCCCCCCCCCCCCCCC(=O)N[C@H](Cc1ccc(OCCCCC)cc1)C(=O)CP(=O)(O)O" turned out to be 93
